// data source = ChEMBL document CHEMBL1143039

Assay: Cmax in C57BL/6 mouse at 10 mg/kg, po
Assay type: ADME, organism-based
Set-up: dose 10 mg/kg, route oral
Conditions: in vivo

molecular string: Cc1cccc2c(-c3cccc(NCc4ccc(CC(=O)O)cc4)c3)c(Cc3ccccc3)cnc12
Cmax: 4190 ng/mL

molecular string: O=C(O)Cc1ccc(CNc2cccc(-c3c(Cc4ccccc4)cnc4c(Cl)cccc34)c2)cc1
Cmax: 2500 ng/mL

###

Assay: Tmax in C57BL/6 mouse at 10 mg/kg, po
Assay type: ADME, organism-based
Parameters: dose 10 mg/kg, route oral
Details: in vivo
Below: a set of entries, each annotated with reported Tmax.
quantity name: Tmax (min)

molecular string: Cc1cccc2c(-c3cccc(NCc4ccc(CC(=O)O)cc4)c3)c(Cc3ccccc3)cnc12
quantity name: Tmax
reported result: 15
--
molecular string: O=C(O)Cc1ccc(CNc2cccc(-c3c(Cc4ccccc4)cnc4c(Cl)cccc34)c2)cc1
quantity name: Tmax
reported result: 15

###

Molecular target: Oxysterols receptor LXR-beta (Homo sapiens, UniProt P55055)
Sequence (P55055 whole entry, the tested form may be a part): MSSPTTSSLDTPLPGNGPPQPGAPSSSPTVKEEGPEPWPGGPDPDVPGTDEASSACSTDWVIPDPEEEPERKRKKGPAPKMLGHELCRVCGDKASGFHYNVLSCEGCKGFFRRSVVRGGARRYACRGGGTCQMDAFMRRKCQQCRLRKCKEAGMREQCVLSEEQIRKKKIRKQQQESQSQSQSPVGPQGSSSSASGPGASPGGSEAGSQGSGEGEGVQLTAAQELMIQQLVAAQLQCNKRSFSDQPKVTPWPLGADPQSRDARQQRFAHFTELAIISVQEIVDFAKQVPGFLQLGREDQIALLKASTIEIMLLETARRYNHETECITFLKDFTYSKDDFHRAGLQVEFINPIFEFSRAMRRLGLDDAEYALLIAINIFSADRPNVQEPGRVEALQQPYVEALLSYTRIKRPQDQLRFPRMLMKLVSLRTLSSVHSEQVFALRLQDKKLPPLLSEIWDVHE
Assay: Agonist activity at human recombinant LXRbeta expressed in Huh7 cells by GAL4 transactivation assay
Assay type: functional, cell-based, Huh-7
pEC50: −log10 of the molar value.
Below: a set of entries, each annotated with reported pEC50.

molecular string: O=C(O)Cc1ccc(CNc2cccc(-c3c(Cc4ccccc4)cnc4c(Cl)cccc34)c2)cc1
tgt: Oxysterols receptor LXR-beta (Homo sapiens, UniProt P55055)
pEC50: 7.27
//
molecular string: Cc1cccc2c(-c3cccc(NCc4ccc(CC(=O)O)cc4)c3)c(Cc3ccccc3)cnc12
tgt: Oxysterols receptor LXR-beta (Homo sapiens, UniProt P55055)
pEC50: 6.57

###

Below: a set of entries, each annotated with reported half-life.
Experiment: Half life in C57BL/6 mouse at 10 mg/kg, po
Format: ADME, organism-based
Design: dose 10 mg/kg, route oral
Settings: in vivo

molecular string: Cc1cccc2c(-c3cccc(NCc4ccc(CC(=O)O)cc4)c3)c(Cc3ccccc3)cnc12
half-life, h: 1.2
--
molecular string: O=C(O)Cc1ccc(CNc2cccc(-c3c(Cc4ccccc4)cnc4c(Cl)cccc34)c2)cc1
half-life, h: 1.2

###

Experiment: Half life in C57BL/6 mouse at 1 mg/kg, iv
Format: ADME, organism-based
Set-up: dose 1 mg/kg, route intravenous
Conditions: in vivo
quantity name: half-life (h)

molecular string: Cc1cccc2c(-c3cccc(NCc4ccc(CC(=O)O)cc4)c3)c(Cc3ccccc3)cnc12
reported result: 1.6

molecular string: O=C(O)Cc1ccc(CNc2cccc(-c3c(Cc4ccccc4)cnc4c(Cl)cccc34)c2)cc1
reported result: 1.8

###

Target: Peroxisome proliferator-activated receptor alpha (Homo sapiens)
Sequence (Q07869 whole entry): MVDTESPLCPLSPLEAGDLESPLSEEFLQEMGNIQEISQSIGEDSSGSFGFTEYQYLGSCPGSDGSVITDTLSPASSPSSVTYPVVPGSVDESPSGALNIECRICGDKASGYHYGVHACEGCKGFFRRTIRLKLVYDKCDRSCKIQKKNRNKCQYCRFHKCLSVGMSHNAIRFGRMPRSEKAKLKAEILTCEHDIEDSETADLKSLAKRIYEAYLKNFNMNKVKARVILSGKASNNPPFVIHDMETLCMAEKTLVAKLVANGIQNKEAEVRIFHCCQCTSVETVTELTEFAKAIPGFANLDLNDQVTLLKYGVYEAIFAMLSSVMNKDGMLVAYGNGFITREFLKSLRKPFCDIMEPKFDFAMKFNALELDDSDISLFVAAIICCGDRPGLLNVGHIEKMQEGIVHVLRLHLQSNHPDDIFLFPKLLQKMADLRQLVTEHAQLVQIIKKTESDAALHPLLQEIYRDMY
Assay: Agonist activity at human recombinant PPARalpha by GAL4 transactivation assay

molecular string: O=C(O)Cc1ccc(CNc2cccc(-c3c(Cc4ccccc4)cnc4c(Cl)cccc34)c2)cc1
EC50 [µM]: 2.05

molecular string: Cc1cccc2c(-c3cccc(NCc4ccc(CC(=O)O)cc4)c3)c(Cc3ccccc3)cnc12
EC50 [µM]: 1.77

###

Target: Oxysterols receptor LXR-beta (Homo sapiens, UniProt P55055)

molecular string: O=C(O)Cc1ccc(CNc2cccc(-c3c(Cc4ccccc4)cnc4c(Cl)cccc34)c2)cc1
IC50 (nM): 1.4

###

Test: Volume of distribution in C57BL/6 mouse at 1 mg/kg, iv
Assay type: ADME, organism-based
Design: dose 1 mg/kg, route intravenous
Conditions: in vivo, read-out: Vss
Below: a set of entries, each annotated with reported Vd.
quantity name: Vd (L/kg)

molecular string: O=C(O)Cc1ccc(CNc2cccc(-c3c(Cc4ccccc4)cnc4c(Cl)cccc34)c2)cc1
reported result: 1.8
//
molecular string: Cc1cccc2c(-c3cccc(NCc4ccc(CC(=O)O)cc4)c3)c(Cc3ccccc3)cnc12
reported result: 1.2

###

Test: AUC (infinity) in C57BL/6 mouse at 10 mg/kg, po
Type: ADME, organism-based
Set-up: time infinity, dose 10 mg/kg, route oral
Conditions: plasma
Below: a set of entries, each annotated with reported AUC(0-inf).

molecular string: O=C(O)Cc1ccc(CNc2cccc(-c3c(Cc4ccccc4)cnc4c(Cl)cccc34)c2)cc1
scale unit: ng·h/mL
AUC(0-inf): 2580

molecular string: Cc1cccc2c(-c3cccc(NCc4ccc(CC(=O)O)cc4)c3)c(Cc3ccccc3)cnc12
scale unit: ng·h/mL
AUC(0-inf): 3580

###

Assay: Bioavailability in C57BL/6 mouse at 10 mg/kg, po
Type: ADME, organism-based
Settings: in vivo
Below: a set of entries, each annotated with reported bioavailability.
quantity name: bioavailability (%)

molecular string: Cc1cccc2c(-c3cccc(NCc4ccc(CC(=O)O)cc4)c3)c(Cc3ccccc3)cnc12
scale unit: %
reported result: 53
//
molecular string: O=C(O)Cc1ccc(CNc2cccc(-c3c(Cc4ccccc4)cnc4c(Cl)cccc34)c2)cc1
scale unit: %
reported result: 57

###

Molecular target: Peroxisome proliferator-activated receptor gamma (Homo sapiens)
Sequence (P37231 whole entry): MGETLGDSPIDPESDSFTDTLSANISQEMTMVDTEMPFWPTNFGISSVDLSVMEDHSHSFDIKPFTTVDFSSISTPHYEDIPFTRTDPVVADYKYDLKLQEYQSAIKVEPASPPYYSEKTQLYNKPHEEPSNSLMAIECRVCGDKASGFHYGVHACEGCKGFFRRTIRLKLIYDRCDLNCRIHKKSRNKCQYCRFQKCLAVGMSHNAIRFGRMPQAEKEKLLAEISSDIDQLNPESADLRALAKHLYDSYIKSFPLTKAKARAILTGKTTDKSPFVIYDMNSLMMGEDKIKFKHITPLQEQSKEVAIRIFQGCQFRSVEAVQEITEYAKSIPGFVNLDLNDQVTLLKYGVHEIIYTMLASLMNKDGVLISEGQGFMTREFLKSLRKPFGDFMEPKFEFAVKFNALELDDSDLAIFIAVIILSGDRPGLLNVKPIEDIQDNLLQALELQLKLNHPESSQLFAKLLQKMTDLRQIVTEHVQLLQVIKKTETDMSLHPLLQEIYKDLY
Experiment: Agonist activity at human recombinant PPARgamma by GAL4 transactivation assay
Below: a set of entries, each annotated with reported EC50.

molecular string: O=C(O)Cc1ccc(CNc2cccc(-c3c(Cc4ccccc4)cnc4c(Cl)cccc34)c2)cc1
tgt: Peroxisome proliferator-activated receptor gamma (Homo sapiens)
EC50: 506 nM
--
molecular string: Cc1cccc2c(-c3cccc(NCc4ccc(CC(=O)O)cc4)c3)c(Cc3ccccc3)cnc12
tgt: Peroxisome proliferator-activated receptor gamma (Homo sapiens)
EC50: 1030 nM
